# test.target: Hub1 (Saccharomyces cerevisiae, UniProt Q6Q546)
# Sequence (Q6Q546 whole entry): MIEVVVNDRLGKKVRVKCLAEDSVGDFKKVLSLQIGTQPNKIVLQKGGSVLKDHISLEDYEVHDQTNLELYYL
# method: biochemical
pKd: −log10 of the molar value. Ends that are not written are not given here.
endpoint.label: pKd

TNEIREKLGM [Peptide-14]
4.85
